Molecular target: T1, EsCas13d, nuclease-dead (Eubacterium siraeum, UniProt B0MS50, R295A;H300A;R849A;H854A)
T1 sequence: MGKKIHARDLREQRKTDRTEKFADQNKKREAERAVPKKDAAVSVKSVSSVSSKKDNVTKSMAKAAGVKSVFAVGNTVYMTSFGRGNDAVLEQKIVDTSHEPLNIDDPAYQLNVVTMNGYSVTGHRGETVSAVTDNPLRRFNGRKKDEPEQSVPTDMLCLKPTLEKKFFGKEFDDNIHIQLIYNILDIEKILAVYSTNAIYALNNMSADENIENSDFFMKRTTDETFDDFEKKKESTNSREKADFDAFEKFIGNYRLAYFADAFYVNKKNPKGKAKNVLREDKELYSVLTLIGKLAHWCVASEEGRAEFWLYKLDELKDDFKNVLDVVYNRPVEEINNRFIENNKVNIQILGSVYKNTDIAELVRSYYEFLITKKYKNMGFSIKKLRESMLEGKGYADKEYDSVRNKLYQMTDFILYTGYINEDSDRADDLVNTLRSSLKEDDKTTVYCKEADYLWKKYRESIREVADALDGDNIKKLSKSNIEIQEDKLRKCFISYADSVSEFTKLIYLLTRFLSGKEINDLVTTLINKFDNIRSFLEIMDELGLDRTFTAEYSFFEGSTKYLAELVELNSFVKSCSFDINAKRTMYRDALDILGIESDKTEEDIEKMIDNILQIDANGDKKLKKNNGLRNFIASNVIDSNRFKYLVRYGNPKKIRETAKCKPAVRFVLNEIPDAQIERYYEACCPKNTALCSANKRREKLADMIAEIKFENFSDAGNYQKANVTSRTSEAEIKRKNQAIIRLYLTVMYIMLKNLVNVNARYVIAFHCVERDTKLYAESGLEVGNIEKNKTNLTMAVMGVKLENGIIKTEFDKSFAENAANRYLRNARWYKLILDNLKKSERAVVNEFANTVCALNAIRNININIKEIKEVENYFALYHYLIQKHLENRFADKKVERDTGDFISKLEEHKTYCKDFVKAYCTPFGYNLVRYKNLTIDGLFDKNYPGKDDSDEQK
Assay: crRNA (strand 1, pre-loaded); Mg2+; 40 mM Tris-HCl pH 7.5, 150 mM NaCl, 6 mM MgCl2, 1 mM DTT, 0.1% Tween-20, 0.2 mg/ml BSA; 25 C; 10 min per concentration, then washed
Details: tags: His6-TwinStrep-SUMO cleaved; N-terminal SNAP kept (SNAP-Surface 488); label: 3' end held by stalled T7 RNA polymerase
Each entry below carries its reported Kd.
Reply numerically in nM, unit not repeated.

input: Please report the measured Kd for target 1 U3A,G17U (mixed) RNA 1: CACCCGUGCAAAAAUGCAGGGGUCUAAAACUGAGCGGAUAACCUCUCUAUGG RNA 2: GGGAAUGGAUCCACAUCUACGAAUUCGUACCAUAUAGAGGUUAUCCGCACACCGAGAUCGGAAGAGCACACGU
output: 25

New cases:
input: Please report the measured Kd for target 2 MT 5'PFS CAU 3'PFS CGC (mixed) RNA 1: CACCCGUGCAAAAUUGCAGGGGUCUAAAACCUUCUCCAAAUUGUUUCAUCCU RNA 2: GGGAAUGGAUCCACAUCUACGAAUUCCAUAGGAUGAAACAAUUUGGAGAAGCGCAGAUCGGAAGAGCACACGU
output: 3.4

Values were extracted from paper PMC10786891.
